Cited source: paper PMC13184981

Reported Kd by item:
molecular target: VHL:ELOB:ELOC (Homo sapiens, UniProt P40337); assay: SPR VHL binary complex affinity and kinetics; details: read-out: binary affinity toward VHL
Sequence (P40337 54-213 limits assumed, species assumed): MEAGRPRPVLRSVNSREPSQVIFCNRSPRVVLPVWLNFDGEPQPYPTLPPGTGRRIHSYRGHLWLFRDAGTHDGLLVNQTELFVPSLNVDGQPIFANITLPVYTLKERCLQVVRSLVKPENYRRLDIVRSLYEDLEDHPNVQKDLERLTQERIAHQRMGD
Sequence (Q15370 whole entry partner, species assumed): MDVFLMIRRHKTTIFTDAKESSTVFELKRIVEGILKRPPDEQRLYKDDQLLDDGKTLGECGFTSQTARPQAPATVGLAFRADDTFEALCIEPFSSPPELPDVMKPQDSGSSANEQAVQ
Sequence (Q15369 17-112 partner limits assumed, species assumed): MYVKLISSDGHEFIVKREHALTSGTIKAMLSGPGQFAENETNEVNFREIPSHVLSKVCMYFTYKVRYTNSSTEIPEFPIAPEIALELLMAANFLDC
Test readout: Kd

[[record]]
molecule = "Cc1ncc(-c2ccc(CNC(=O)[C@@H]3C[C@@H](O)CN3C(=O)[C@@H](NC(=O)CCCc3cn(CCCCCC(=O)Nc4ncc(-c5cc(C(F)F)nn5-c5c(Cl)cccc5Cl)s4)nn3)C(C)(C)C)cc2)s1 [23i]"
system_under_test = "VHL:ELOB:ELOC (Homo sapiens, UniProt P40337)"
result = "> 1000 nM"

[[record]]
molecule = "Cc1ncc(-c2ccc(CNC(=O)[C@@H]3C[C@@H](O)CN3C(=O)[C@@H](NC(=O)CCCc3cn(CCCCC(=O)Nc4ncc(-c5cc(C(F)F)nn5-c5c(Cl)cccc5Cl)s4)nn3)C(C)(C)C)cc2)s1 [23h]"
system_under_test = "VHL:ELOB:ELOC (Homo sapiens, UniProt P40337)"
result = "> 1000 nM"

[[record]]
molecule = "Cc1ncc(-c2ccc(CNC(=O)[C@@H]3C[C@@H](O)CN3C(=O)[C@@H](NC(=O)CCc3cn(CCCCCC(=O)Nc4ncc(-c5cc(C(F)F)nn5-c5c(Cl)cccc5Cl)s4)nn3)C(C)(C)C)cc2)s1 [23f]"
system_under_test = "VHL:ELOB:ELOC (Homo sapiens, UniProt P40337)"
result = "> 1000 nM"


* * *

target: NanoLuc-tagged LIMK1 and Halo-tagged CRBN (Homo sapiens, UniProt P53667+Q96SW2); construct: CRBN vector in-house NV3391; test: NanoBRET cellular ternary complex formation, LIMK1
Sequence (P53667 whole entry): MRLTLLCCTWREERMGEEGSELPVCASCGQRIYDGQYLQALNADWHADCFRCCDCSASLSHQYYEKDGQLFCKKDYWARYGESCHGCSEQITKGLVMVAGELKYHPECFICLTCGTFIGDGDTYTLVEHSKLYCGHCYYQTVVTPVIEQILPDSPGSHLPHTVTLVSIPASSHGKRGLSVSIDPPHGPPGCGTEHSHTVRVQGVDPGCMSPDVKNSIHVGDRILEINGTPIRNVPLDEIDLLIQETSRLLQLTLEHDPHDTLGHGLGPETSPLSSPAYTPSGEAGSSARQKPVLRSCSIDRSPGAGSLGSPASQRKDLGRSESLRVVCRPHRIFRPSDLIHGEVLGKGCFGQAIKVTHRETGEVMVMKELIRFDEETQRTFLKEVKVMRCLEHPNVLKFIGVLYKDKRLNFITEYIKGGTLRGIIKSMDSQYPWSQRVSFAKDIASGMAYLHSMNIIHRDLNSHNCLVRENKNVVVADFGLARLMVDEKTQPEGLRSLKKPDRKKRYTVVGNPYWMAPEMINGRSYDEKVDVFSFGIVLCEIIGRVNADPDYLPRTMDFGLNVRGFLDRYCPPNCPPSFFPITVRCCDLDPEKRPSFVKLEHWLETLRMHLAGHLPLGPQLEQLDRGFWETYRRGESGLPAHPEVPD
Sequence (Q96SW2 whole entry): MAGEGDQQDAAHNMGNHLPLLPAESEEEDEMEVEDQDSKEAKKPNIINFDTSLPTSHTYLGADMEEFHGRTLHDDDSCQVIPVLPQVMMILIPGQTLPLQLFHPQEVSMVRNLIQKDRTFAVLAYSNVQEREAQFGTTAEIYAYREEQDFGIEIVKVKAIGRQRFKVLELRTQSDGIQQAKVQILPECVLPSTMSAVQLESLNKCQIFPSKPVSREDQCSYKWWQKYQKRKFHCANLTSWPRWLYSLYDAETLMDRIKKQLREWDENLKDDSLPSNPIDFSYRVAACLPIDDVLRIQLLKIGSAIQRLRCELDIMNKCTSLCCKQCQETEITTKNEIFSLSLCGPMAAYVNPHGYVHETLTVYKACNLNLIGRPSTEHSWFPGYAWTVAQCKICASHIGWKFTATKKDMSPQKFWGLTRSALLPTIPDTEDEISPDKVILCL
Sequence (Q16531 whole entry partner): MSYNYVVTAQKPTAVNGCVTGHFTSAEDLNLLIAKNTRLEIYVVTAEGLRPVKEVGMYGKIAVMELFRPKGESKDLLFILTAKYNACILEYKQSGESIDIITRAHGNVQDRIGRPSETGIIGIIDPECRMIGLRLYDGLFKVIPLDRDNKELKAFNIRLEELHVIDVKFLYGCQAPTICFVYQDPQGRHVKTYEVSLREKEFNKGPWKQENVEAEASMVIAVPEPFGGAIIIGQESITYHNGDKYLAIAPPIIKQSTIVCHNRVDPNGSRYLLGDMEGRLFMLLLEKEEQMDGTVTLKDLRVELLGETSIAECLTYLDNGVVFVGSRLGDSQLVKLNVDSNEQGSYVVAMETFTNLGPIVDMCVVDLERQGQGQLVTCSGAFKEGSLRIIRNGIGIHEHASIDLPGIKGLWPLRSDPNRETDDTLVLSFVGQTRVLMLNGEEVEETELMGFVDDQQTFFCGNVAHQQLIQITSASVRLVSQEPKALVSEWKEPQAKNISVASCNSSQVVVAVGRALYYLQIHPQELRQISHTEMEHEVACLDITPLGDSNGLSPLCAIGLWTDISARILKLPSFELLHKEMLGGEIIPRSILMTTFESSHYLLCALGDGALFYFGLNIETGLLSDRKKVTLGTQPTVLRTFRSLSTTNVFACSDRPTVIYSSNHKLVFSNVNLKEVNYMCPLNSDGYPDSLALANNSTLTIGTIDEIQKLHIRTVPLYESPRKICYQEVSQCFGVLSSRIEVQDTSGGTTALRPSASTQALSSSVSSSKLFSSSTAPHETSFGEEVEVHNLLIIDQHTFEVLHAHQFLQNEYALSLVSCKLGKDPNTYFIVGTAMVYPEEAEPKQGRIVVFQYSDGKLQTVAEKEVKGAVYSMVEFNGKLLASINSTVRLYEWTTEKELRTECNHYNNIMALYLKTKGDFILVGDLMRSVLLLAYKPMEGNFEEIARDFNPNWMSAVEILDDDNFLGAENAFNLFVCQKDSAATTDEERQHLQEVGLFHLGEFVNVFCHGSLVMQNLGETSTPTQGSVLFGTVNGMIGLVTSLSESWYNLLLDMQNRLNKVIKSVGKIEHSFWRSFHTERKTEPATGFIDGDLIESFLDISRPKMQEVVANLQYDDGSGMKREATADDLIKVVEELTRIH
pEC50: −log10 of the molar value.
Test readout: pEC50

[[record]]
compound = "Cc1c(OCc2cn(CCCCC(=O)Nc3ncc(-c4cc(C(F)F)nn4-c4c(Cl)cccc4Cl)s3)nn2)cccc1N1CCC(=O)NC1=O [22b]"
test_readout = "pEC50"
numeric_value = 6.52

